We begin with log10 IC50 values for UniProtKB Q9GZT9, as collected from the published literature.
log10 IC50, nM

// solved cases for log10 IC50 follow
[[record]]
molecule = "CC[C@H]1CC[C@H](Cn2nc(F)c3nc(-n4cc(C(=O)O)cn4)nc(O)c32)CC1"
reported_metric = "log10 IC50"
endpoint_result = 1.04

[[record]]
molecule = "C[C@@H](CNC(=O)c1ncc(C(=O)NC(c2ccccc2)c2ccccc2)c(O)n1)C(=O)O (single isomer, unassigned)"
reported_metric = "log10 IC50"
endpoint_result = 0.36

[[record]]
molecule = "CC(CNC(=O)c1cc(O)c(C(=O)NC(c2ccccc2)c2ccccc2)cn1)C(=O)O (stereo not shown)"
reported_metric = "log10 IC50"
endpoint_result = 0.28

[[record]]
molecule = "O=C(O)CNC(=O)c1c(O)c2c(n(Cc3ccc(-c4ccc(OC(F)(F)F)cc4)cc3)c1=O)COCC2"
reported_metric = "log10 IC50"
endpoint_result = 1.46

[[record]]
molecule = "O=C(O)c1cnn(-c2nc(O)c3nn(Cc4ccc5ccccc5c4)cc3n2)c1"
reported_metric = "log10 IC50"
endpoint_result = 1.23

[[record]]
molecule = "Cc1nn([C@@H](C)c2ccc(F)cc2Cl)c2c(O)nc(-n3cc(C(=O)O)cn3)nc12"
reported_metric = "log10 IC50"
endpoint_result = 2.04

[[record]]
molecule = "O=C(NCC1(C(=O)O)CC1)c1ncc(C(=O)NC(c2ccccc2)c2ccccc2)c(O)n1"
reported_metric = "log10 IC50"
endpoint_result = 0.93

[[record]]
molecule = "CC(OC(=O)[C@H](O)CNC(=O)c1ncc(C(=O)NC(c2ccccc2)c2ccccc2)c(O)n1)C(=O)OCc1ccccc1 (stereo partly shown)"
reported_metric = "log10 IC50"
endpoint_result = 1.05

[[record]]
molecule = "O=C(O)c1cnn(-c2nc(O)c3c(cnn3C(c3ccc(F)c(Cl)c3)C3CC3)n2)c1 (single isomer, unassigned)"
reported_metric = "log10 IC50"
endpoint_result = 1.61

[[record]]
molecule = "Cc1cc(Cn2ncc3nc(-n4cc(C(=O)O)cn4)nc(O)c32)c(F)cc1-c1ccccc1F"
reported_metric = "log10 IC50"
endpoint_result = 1.26


Now for another entry.
Data request: Any idea what log10 IC50 was measured for `CC(C)c1nn(CC2CCCCC2)c2c(O)nc(-n3cc(C(=O)O)cn3)nc12` ?
Data returned: 2.08

----------
We begin with log10 of IC50 values for human HIF-PHD2 (Homo sapiens, UniProt Q9GZT9), as collected from the published literature.
log10 IC50, nM

[[record]]
compound = "CC(C)(C)c1ccc(Cn2c3c(c(O)c(C(=O)NCC(=O)O)c2=O)COC3)cc1"
endpoint_result = 0.60

[[record]]
compound = "CC(C)[C@@H]1CC[C@@H](C)[C@@H](n2ncc3nc(-n4cc(C(=O)O)cn4)nc(O)c32)C1"
endpoint_result = 2.23


Data request: Notebook entry, human HIF-PHD2 (Homo sapiens, UniProt Q9GZT9) assay: log10 of IC50 of `Cn1c(=O)c(C(=O)NCC(=O)O)c(O)c2cnc(-c3cccc(F)c3)nc21` = ?
Data returned: 0.46

----------
We begin with pIC50 values for human HIF-PHD2 (Homo sapiens, UniProt Q9GZT9), as collected from the published literature.
# log scale: pIC50 equals minus log10 of the concentration in mol/L

[[record]]
smi = "O=C(O)c1cnn(-c2nc(O)c3c(cnn3[C@H]3CCN(c4ccc(Cl)c(Cl)c4)C3)n2)c1"
endpoint_result = 7.89


Data request: Notebook entry, human HIF-PHD2 (Homo sapiens, UniProt Q9GZT9) assay: pIC50 of `O=C(O)CNC(=O)c1c(O)c2c(n(Cc3ccc(F)c(F)c3)c1=O)CCOC2` = ?
Data returned: 7.83

Data request: Notebook entry, human HIF-PHD2 (Homo sapiens, UniProt Q9GZT9) assay: pIC50 of `C[C@H](c1ccc(C(F)(F)F)c(F)c1)n1ncc2nc(-n3cc(C(=O)O)cn3)nc(O)c21` = ?
Data returned: 7.21

Data request: Notebook entry, human HIF-PHD2 (Homo sapiens, UniProt Q9GZT9) assay: pIC50 of `O=C(O)c1cnn(-c2nc(O)c3c(n2)c(F)nn3CCC2CCCCC2)c1` = ?
Data returned: 7.77

Data request: Notebook entry, human HIF-PHD2 (Homo sapiens, UniProt Q9GZT9) assay: pIC50 of `Cn1c(=O)c(C(=O)NCC(=O)O)c(O)c2cc(Cl)nnc21` = ?
Data returned: 7.62

----------
We begin with pIC50 values for human HIF-PHD2 (Homo sapiens), as collected from the published literature.
# log scale: pIC50 equals minus log10 of the concentration in mol/L

// solved cases for pIC50 follow
[[record]]
smi = "N#Cc1ccc(Cn2c3c(c(O)c(C(=O)NCC(=O)O)c2=O)CCOC3)cc1F"
endpoint_result = 7.65

[[record]]
smi = "CN1Cc2c(c(O)c(C(=O)NCC(=O)O)c(=O)n2Cc2cccc(C#N)c2)CC1=O"
endpoint_result = 7.76

[[record]]
smi = "C[C@@H](c1ccc2ccccc2c1)n1nc(F)c2nc(-n3cc(C(=O)O)cn3)nc(O)c21"
endpoint_result = 7.96

[[record]]
smi = "O=C(O)c1cnn(-c2nc(O)c3c(cnn3Cc3ccc(-c4ccccc4F)c(F)c3F)n2)c1"
endpoint_result = 7.82

[[record]]
smi = "O=C(O)CNC(=O)C1=C(O)c2cc(C(F)(F)F)ccc2C1=O"
endpoint_result = 7.89

[[record]]
smi = "CCC(CC)Cn1ncc2nc(-n3cc(C(=O)O)cn3)nc(O)c21"
endpoint_result = 7.05


Data request: Any idea what pIC50 was measured for `Cn1c2c(c(O)c(C(=O)NCC(=O)O)c1=O)COC2` ?
Data returned: 7.98

Data request: Any idea what pIC50 was measured for `Cn1c(=O)c(C(=O)NCC(=O)O)c(O)c2cnc(-c3ccc(Cl)cc3)nc21` ?
Data returned: 8.11

----------
We begin with pIC50 values for human HIF-PHD2 (Homo sapiens), as collected from the published literature.
# log scale: pIC50 equals minus log10 of the concentration in mol/L

// solved cases for pIC50 follow
[[record]]
smi = "COc1cccc(-c2ccc3c(O)c(C(=O)NCC(=O)O)c(=O)oc3c2)c1"
reported_metric = "pIC50"
endpoint_result = 6.82

[[record]]
smi = "O=C(NCC1(C(=O)O)CC1)c1cc(O)c(C(=O)NC(c2ccccc2)c2ccccc2)cn1"
reported_metric = "pIC50"
endpoint_result = 8.28

[[record]]
smi = "O=C(O)CNC(=O)C1=C(O)c2c(F)cccc2C1=O"
reported_metric = "pIC50"
endpoint_result = 7.59

[[record]]
smi = "O=C(O)CNC(=O)c1c(O)c2c(n(Cc3ccccn3)c1=O)COCC2"
reported_metric = "pIC50"
endpoint_result = 7.35


Data request: Any idea what pIC50 was measured for `Cc1ccc(C(F)(F)F)cc1[C@H](C)n1ncc2nc(-n3cc(C(=O)O)cn3)nc(O)c21` ?
Data returned: 7.02

Data request: Any idea what pIC50 was measured for `O=C(O)c1cnn(-c2nc(O)c3c(cnn3Cc3ccc(C4CCCCC4)cc3)n2)c1` ?
Data returned: 7.59

Data request: Any idea what pIC50 was measured for `O=C(O)CNC(=O)c1c(O)c2ccc(-c3ccc(C(F)(F)F)cc3)cc2oc1=O` ?
Data returned: 6.82

Data request: Any idea what pIC50 was measured for `O=C(O)c1cnn(-c2nc(O)c3c(cnn3CC34CC5CC(CC(C5)C3)C4)n2)c1` ?
Data returned: 7.34

Data request: Any idea what pIC50 was measured for `CN(C)C(=O)COC(=O)CCNC(=O)c1ncc(C(=O)NC(c2ccccc2)c2ccccc2)c(O)n1` ?
Data returned: 6.80

Data request: Any idea what pIC50 was measured for `Cc1cc(Cn2ncc3nc(-n4cc(C(=O)O)cn4)nc(O)c32)ccc1-c1ccccc1` ?
Data returned: 7.96

Data request: Any idea what pIC50 was measured for `O=C(O)c1cnn(-c2nc(O)c3c(cnn3CCc3ccc4ccccc4c3)n2)c1` ?
Data returned: 7.68

Data request: Any idea what pIC50 was measured for `C[C@@H](c1cc(F)cc(C(F)(F)F)c1)n1ncc2nc(-n3cc(C(=O)O)cn3)nc(O)c21` ?
Data returned: 7.42

Data request: Any idea what pIC50 was measured for `O=C(O)c1cnn(-c2nc(O)c3nn(CCc4ccc5ccccc5c4)cc3n2)c1` ?
Data returned: 7.24

----------
We begin with pIC50 values for human HIF-PHD2 (Homo sapiens, UniProt Q9GZT9), as collected from the published literature.
# log scale: pIC50 equals minus log10 of the concentration in mol/L

// solved cases for pIC50 follow
[[record]]
molecule = "CC(C)[C@H]1CC[C@@H](n2ncc3nc(-n4cc(C(=O)O)cn4)nc(O)c32)CC1"
reported_metric = "pIC50"
endpoint_result = 7.55

[[record]]
molecule = "Cc1nn(CCC2CCCC2)c2c(O)nc(-n3cc(C(=O)O)cn3)nc12"
reported_metric = "pIC50"
endpoint_result = 7.44

[[record]]
molecule = "O=C(O)c1cnn(-c2nc(O)c3nn(Cc4ccc(-c5ccccc5)cc4F)cc3n2)c1"
reported_metric = "pIC50"
endpoint_result = 8.64

[[record]]
molecule = "CCC(c1cccc(C(F)(F)F)c1)n1ncc2nc(-n3cc(C(=O)O)cn3)nc(O)c21 (single isomer, unassigned)"
reported_metric = "pIC50"
endpoint_result = 7.44

[[record]]
molecule = "CC(C)C[C@H](C)n1ncc2nc(-n3cc(C(=O)O)cn3)nc(O)c21"
reported_metric = "pIC50"
endpoint_result = 7.39


Data request: Notebook entry, human HIF-PHD2 (Homo sapiens, UniProt Q9GZT9) assay: pIC50 of `O=C(O)c1cnn(-c2nc(O)c3c(cnn3Cc3ccc(-c4cccc(F)c4)cc3)n2)c1` = ?
Data returned: 7.85

Data request: Notebook entry, human HIF-PHD2 (Homo sapiens, UniProt Q9GZT9) assay: pIC50 of `Cn1c(=O)c(C(=O)NCC(=O)O)c(O)c2sc(-c3ccc(Cl)cc3)cc21` = ?
Data returned: 7.01

Data request: Notebook entry, human HIF-PHD2 (Homo sapiens, UniProt Q9GZT9) assay: pIC50 of `CC(C)c1ccccc1-c1ccc(Cn2ncc3nc(-n4cc(C(=O)O)cn4)nc(O)c32)cc1` = ?
Data returned: 7.54

Data request: Notebook entry, human HIF-PHD2 (Homo sapiens, UniProt Q9GZT9) assay: pIC50 of CC(c1ccc(Cl)c(C(F)(F)F)c1)n1ncc2nc(-n3cc(C(=O)O)cn3)nc(O)c21 (single isomer, unassigned) = ?
Data returned: 7.54

Data request: Notebook entry, human HIF-PHD2 (Homo sapiens, UniProt Q9GZT9) assay: pIC50 of `O=C(N[C@@H](Cc1c[nH]c2ccccc12)C(=O)O)c1ncc(C(=O)NC(c2ccccc2)c2ccccc2)c(O)n1` = ?
Data returned: 8.05

Data request: Notebook entry, human HIF-PHD2 (Homo sapiens, UniProt Q9GZT9) assay: pIC50 of `O=C(O)c1cnn(-c2nc(O)c3c(cnn3Cc3ccc(-c4ccc(C(F)(F)F)cc4Cl)cc3)n2)c1` = ?
Data returned: 7.51
